Source: PubChem BioAssay (NCI)

Tested on: SK-MEL-2 melanoma
Test: NCI-60 one-dose screen, 48 h
Settings: 10 µM unless noted
The panel holds about 83,000 compounds, 20% with a hit somewhere; the sample as a whole holds those more often. Calls of active or inactive are those of the source. The calls were made as follows: active = growth percent below 10; inactive = the rest.
Pick from active, inactive when you respond.

Example entries begin here.
{"columns": ["entrySmiles", "cat"],
 "data": [
  ["Nc1ccc(S(=O)(=O)Nc2cc(I)cc(I)c2)cc1", "inactive"],
  ["Cc1cc(-c2ccccc2)nc2ccccc12", "inactive"],
  ["CCN1CCN(Cc2ccc(NC(=O)Nc3cccc(-n4ccc5c(NC(=O)c6ccccc6)nccc54)c3)cc2C(F)(F)F)CC1", "inactive"],
  ["Nc1ncnc2c1c(C(F)(F)F)cn2[C@@H]1O[C@H](CO)[C@@H](O)[C@H]1O", "active"],
  ["c1cncc(-c2nc3ccccc3[nH]2)c1", "inactive"]
]}

# input # fetch the recorded call for CC(C)C(=O)Nc1nc2c(s1)CCCc1ccn(S(=O)(=O)c3ccccc3)c1-2 here
# output inactive

# input Each compound tested received a call. Report the one for CCCCOc1nc2ccc(Cl)cc2cc1/C=C/C(=O)/C=C/c1ccc(Cl)cc1 .
# output inactive

# input Query: recorded result category for CCOC(=O)c1[nH]c(-c2ccc(Cl)cc2)cc1-c1cccnc1 in this test
# output inactive

# input Status in this test for Cc1cc(NCCN(C(C)C)C(C)C)nc(/N=C(\N)Nc2ccc(Cl)c(C(F)(F)F)c2)n1 ?
# output active

# input Could you kindly confirm the outcome this assay logged for O=S(=O)(CCN1CCOCC1)Nc1cncc(-c2ccc3ncnc(Nc4ccc(F)c(Cl)c4)c3c2)c1 ?
# output inactive
